Test system: SN12C
Assay: NCI tumour cell line growth inhibition, 48 h
Calls of active or inactive are those of the source. Cut-off read from the data, not from the text of the source: active = GI50 up to about 1.1 µM and inactive = higher.
Classes used: active, inactive

>  <compound>
NC(=O)CCCC(NCc1c2ccccc2nc2ccccc12)C(=O)O (stereo not drawn)

>  <classAssignment>
inactive

$$$$
>  <compound>
O=c1c2c(nc3[nH]ccn13)CCC2

>  <classAssignment>
inactive

$$$$
>  <compound>
COc1cc(-c2c3c([nH]c(=O)c2C#N)-c2cc([N+](=O)[O-])ccc2CCC3)cc(OC)c1OC

>  <classAssignment>
inactive

$$$$
>  <compound>
O=C1Nc2ccccc2C1Cc1ccc([N+](=O)[O-])cc1 (stereo not drawn)

>  <classAssignment>
inactive

$$$$
>  <compound>
CCOC(=O)c1cc2c3c(cc(OC)c2[nH]1)N(C(=O)OCC)CC3

>  <classAssignment>
inactive

$$$$
>  <compound>
C=C1CCC(OC(C)=O)C2(C)C(OC(C)=O)CC3OC3(C)C2C(OC(C)=O)C2C(C)C(=O)OC2C1Cl (stereo not drawn)

>  <classAssignment>
inactive

$$$$
>  <compound>
CCOC(=O)CCC(NC(=O)Cc1ccc(Nc2nc3ccccc3nc2-c2ccccc2)cc1)C(=O)OCC (stereo not drawn)

>  <classAssignment>
inactive

$$$$
>  <compound>
CC(=O)N(C)C=C1C(=O)N(C)C(=O)N(C)C1=O

>  <classAssignment>
inactive

$$$$
>  <compound>
COc1ccc(C(=O)NCCN(C)C)c2nc3ccccc3nc12

>  <classAssignment>
inactive

$$$$
>  <compound>
C=C1C[C@@H]2CC[C@@]34CC5O[C@H]6C(O[C@H]7CC[C@H](CC(=O)O[C@@H]8[C@@H](C)[C@@H]9O[C@@H]%10C[C@]%11(C[C@@H]%12O[C@]%13(C[C@H](C)[C@@H]%14O[C@@H]%15CC(C(O)CO)O[C@@H]%15C[C@@H]%14O%13)C[C@H](C)[C@@H]%12O%11)O[C@@H]%10C[C@@H]9O[C@H]8CC8O[C@@H](CC[C@@H]1O2)C[C@@H](C)C8(O)CO)O[C@@H]7[C@@H]6O3)[C@H]5O4 (stereo partly drawn)

>  <classAssignment>
active

$$$$
>  <compound>
N#Cc1c(NC(=S)NC(=O)c2ccccc2)nc2c(c1-c1ccccc1)CCC2

>  <classAssignment>
inactive

$$$$
>  <compound>
COC1C(OC(=O)c2ccc(C)[nH]2)C(O)C(Oc2ccc3c(O)c(NC(=O)c4ccc(O)c(CC=C(C)C)c4)c(=O)oc3c2Cl)OC1(C)C (stereo not drawn)

>  <classAssignment>
inactive

$$$$
>  <compound>
COC(=O)C1=C(C(=O)OC)C(C(=O)c2ccc(Br)cc2)N2N=C(c3ccc(Cl)cc3)C=CC12 (stereo not drawn)

>  <classAssignment>
inactive

$$$$
>  <compound>
N=C(N)NCCN1CCCCCc2ccccc21

>  <classAssignment>
inactive

$$$$
>  <compound>
COc1cc2cc3c4c(cc(OC)c(OC)c4c2cc1OC)CCN3C

>  <classAssignment>
inactive

$$$$
>  <compound>
Cc1ccc(NC(=O)c2cc(S(=O)(=O)N3CCNNC3=O)c(S)cc2Cl)cc1

>  <classAssignment>
inactive

$$$$
>  <compound>
C[C@H]1C[C@H](C)c2ccccc2N(C)/C1=N\c1ccccc1

>  <classAssignment>
inactive

$$$$
>  <compound>
N=C(N)/N=C(\N)Nc1cnccn1

>  <classAssignment>
inactive

$$$$

* * *

Tested on: RPMI-8226
Experiment: NCI tumour cell line growth inhibition, 48 h
Calls of active or inactive are those of the source. Cut-off read from the data, not from the text of the source: active = GI50 up to about 1.1 µM and inactive = higher.
Classes used: YES (active), NO (inactive)

>  <compound>
CCc1nnc(S)n1/N=C\c1ccc(-c2ccccc2Cl)o1

>  <classAssignment>
NO

$$$$
>  <compound>
C=CCOCn1cc(F)c(=O)[nH]c1=O

>  <classAssignment>
NO

$$$$
>  <compound>
Cc1c(C(=O)C/C(=N/NC(=O)CC#N)C(N)=O)[n+]([O-])c2ccccc2[n+]1[O-]

>  <classAssignment>
NO

$$$$
>  <compound>
Cc1cc2c(cc1Cl)SC(NNC(=O)c1ccco1)=NS2(=O)=O

>  <classAssignment>
NO

$$$$
>  <compound>
O=C(O)c1ccccc1CC(Cc1ccc2c(c1)CCC2)C(=O)O (configuration not stated)

>  <classAssignment>
NO

$$$$
>  <compound>
CCCCCC(O)C1C(=O)OC(C)C(O)/C=C/C=C/C=C/C=C\C=C(\C)C(O)CC(O)CC(O)CC(O)CC(O)CC(O)CC1O (configuration not stated)

>  <classAssignment>
NO

$$$$
>  <compound>
CCN(CC)CCC(=O)Nc1ccc2sc3ccccc3c(=O)c2n1

>  <classAssignment>
NO

$$$$
>  <compound>
C=C1OC2OC(C)C(NC(=O)OCC(Cl)(Cl)Cl)C(OC(C)=O)C2O1 (configuration not stated)

>  <classAssignment>
NO

$$$$
>  <compound>
N#C/N=C(/N)c1sc2nc3c(c(-c4ccc(Br)cc4)c2c1N)CCCC3

>  <classAssignment>
NO

$$$$
>  <compound>
CC(=O)c1sc2[n+](c1C)C(=O)/C(=C\c1ccccc1Cl)S2

>  <classAssignment>
NO

$$$$
>  <compound>
CC(=O)Nc1ccc2[nH]c(C(=O)N3CC(CCl)c4c3cc([N+](=O)[O-])c3ccccc43)cc2c1 (configuration not stated)

>  <classAssignment>
YES

$$$$
>  <compound>
O=C1c2ccccc2C(=O)c2c1ccc1c2N=C(c2ccc(Br)cc2)CC(c2cccc3ccccc23)N1 (configuration not stated)

>  <classAssignment>
NO

$$$$
>  <compound>
NC1=Nc2cc(Cl)ccc2Sc2nc3ccccc3n21

>  <classAssignment>
NO

$$$$
>  <compound>
CCOC(=O)/C=C/C1(CCOC(C)=O)CCCCC1

>  <classAssignment>
NO

$$$$
>  <compound>
N#Cc1c(Nc2ccccc2)[n+]([O-])c2ccc(Cl)cc2[n+]1[O-]

>  <classAssignment>
NO

$$$$
>  <compound>
N#Cc1c(-c2ccc(Cl)cc2)c2c([nH]c1=O)-c1ccccc1SC2

>  <classAssignment>
NO

$$$$
>  <compound>
CCOc1cc(/C=N\N(C)C)cc(/C=N\N(C)C)c1O

>  <classAssignment>
NO

$$$$
>  <compound>
CN(C)CCNc1ccc(NCCN(C)C)c2c1C(=O)c1ncsc1C2=O

>  <classAssignment>
NO

$$$$
>  <compound>
COC(=O)Cc1cc(=O)n2c3ccccc3n(C)c2c1C#N

>  <classAssignment>
NO

$$$$
>  <compound>
Cc1cc(C)c2c(O)cc(-c3ccc(F)cc3)nc2n1

>  <classAssignment>
NO

$$$$
>  <compound>
Cc1ccc(C2C(C(=O)C(C)(C)C)N2S(=O)(=O)c2ccc(C)cc2)cc1 (configuration not stated)

>  <classAssignment>
NO

$$$$
>  <compound>
O=C(c1cccs1)N(C(=S)N1CCN(c2ccccc2)CC1)C1CCCCC1

>  <classAssignment>
NO

$$$$

* * *

Test system: ACHN
Assay: NCI tumour cell line growth inhibition, 48 h
Active and inactive are the calls of the source. No stated cut-off is given here; in the data, active = GI50 up to about 1.1 µM and inactive = higher.
Classes used: active, inactive

>  <compound>
Cc1cn(CC2=NC3CCCCC3N2)c(=O)[nH]c1=O (stereo not given)

>  <classAssignment>
inactive

$$$$
>  <compound>
COC(=O)C1CC2CC(=NNC(N)=O)CC2C1 (stereo not given)

>  <classAssignment>
inactive

$$$$
>  <compound>
Nc1cc(N2CCCC2)nc(=O)n1-c1ccccc1

>  <classAssignment>
inactive

$$$$
>  <compound>
CC(=O)Nc1ccc2[nH]c(C(=O)N3CC(CCl)c4c3cc([N+](=O)[O-])c3ccccc43)cc2c1 (stereo not given)

>  <classAssignment>
inactive

$$$$
>  <compound>
CN1C(=O)C(=Cc2ccc(Br)cc2)C(=O)N(C)C1=O

>  <classAssignment>
inactive

$$$$
>  <compound>
C[C@@H]1OC(=O)/C(=C\N(C)C)[C@H]2CC(=O)N(CCc3cn(S(=O)(=O)C(F)(F)F)c4ccccc34)C[C@H]12

>  <classAssignment>
inactive

$$$$
>  <compound>
CC(C)OP(=O)(OC(C)C)C(C(C)C)N(C)/C(F)=N/C(F)(F)F (stereo not given)

>  <classAssignment>
inactive

$$$$
>  <compound>
N#Cc1c(Nc2ccccc2)[n+]([O-])c2ccc(Cl)cc2[n+]1[O-]

>  <classAssignment>
inactive

$$$$
>  <compound>
CC(C)C[C@H](NC(=O)[C@H](Cc1ccccc1)NC(=O)CCc1ccccc1)B(O)O

>  <classAssignment>
active

$$$$
>  <compound>
O=C(c1cccs1)N(C(=S)N1CCN(c2ccccc2)CC1)C1CCCCC1

>  <classAssignment>
inactive

$$$$

* * *

System: RXF 393
Assay: NCI tumour cell line growth inhibition, 48 h
Calls of active or inactive are those of the source. Rule as the data show it: active = GI50 up to about 1.1 µM and inactive = higher.
Measured GI50 by item

>  <compound>
COC(=O)C1=C(O)c2cc(OC)c(OC)c(OC)c2[C@H](c2cc(OC)c(OC)c(OC)c2)C1C(=O)OC (stereo partly drawn)

>  <GI50>
20.7 µM (inactive)

$$$$
>  <compound>
CCOC(=O)CCC(NC(=O)Cc1ccc(Nc2nc3ccccc3nc2-c2ccccc2)cc1)C(=O)OCC (stereo not drawn)

>  <GI50>
10.3 µM (inactive)

$$$$
>  <compound>
Cc1[nH]c2ccccc2c1-c1cc(-c2cc(-c3c(C)[nH]c4ccccc34)on2)no1

>  <GI50>
37.7 µM (inactive)

$$$$
